Origin of the recorded values: patent US11746100B2

- EXPERIMENTAL TARGET: human ferroportin (Homo sapiens, UniProt Q9NP59)
- Construct: luciferase reporter (read with the Nano-Glo Luciferase Assay System); expressed in transfected cells; host or cells: CHO cells, stably transfected, expression induced with doxycycline
- Sequence (Q9NP59 whole entry): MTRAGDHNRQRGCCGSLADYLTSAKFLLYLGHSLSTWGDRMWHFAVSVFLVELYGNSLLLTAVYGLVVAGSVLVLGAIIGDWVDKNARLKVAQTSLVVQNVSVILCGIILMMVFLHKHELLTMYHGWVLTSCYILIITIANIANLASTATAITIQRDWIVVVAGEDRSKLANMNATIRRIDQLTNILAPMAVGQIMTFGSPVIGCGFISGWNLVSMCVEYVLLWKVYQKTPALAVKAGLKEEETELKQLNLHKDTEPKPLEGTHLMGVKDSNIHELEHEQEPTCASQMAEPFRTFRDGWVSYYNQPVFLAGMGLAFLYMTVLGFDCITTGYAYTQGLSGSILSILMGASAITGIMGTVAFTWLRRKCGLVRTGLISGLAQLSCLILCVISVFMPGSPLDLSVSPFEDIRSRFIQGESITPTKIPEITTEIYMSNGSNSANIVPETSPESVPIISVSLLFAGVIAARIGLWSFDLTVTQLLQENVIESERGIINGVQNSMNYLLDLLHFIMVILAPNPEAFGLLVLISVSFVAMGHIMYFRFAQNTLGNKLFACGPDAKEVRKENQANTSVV
- TEST DETAILS: Biological in-vitro ferroportin internalization assay (luciferase reporter)
- Format: cell-based
- CONDITIONS: average pEC50; stably-transfected CHO cell line expressing human ferroportin tagged to a luciferase reporter; 6 h incubation with test compound
MEASUREMENT KIND: pEC50

[[record]]
molecule = "CN(CC(=O)Nc1cccc(F)c1)c1nc(-c2cc(O[C@H]3C[C@@H](O)C3)ccn2)nc2c1CCC2 [Compound 345]"
measurement_kind = "pEC50"
observed = 6.7

[[record]]
molecule = "COc1ccnc(-c2nc3c(c(N(C)Cc4nc(Cc5ccccc5)co4)n2)CCC3)c1 [Compound 379]"
measurement_kind = "pEC50"
observed = 7.2

[[record]]
molecule = "COc1ccc(NC(=O)CN(C)c2nc(-c3cc4scnc4cn3)nc3c2CCC3)cn1 [Compound 304]"
measurement_kind = "pEC50"
observed = 6.8

[[record]]
molecule = "CN(CC(=O)NC1CCCOC1)c1nc(-c2ccccn2)nc2c1CCC2 (stereo not drawn) [Compound 26]"
measurement_kind = "pEC50"
observed = 6.6

[[record]]
molecule = "COc1ccc(NC(=O)CN(C)c2nc(-c3cc(OCC4CC4)ccn3)nc3c2CCC3)cn1 [Compound 224]"
measurement_kind = "pEC50"
observed = 7.9

[[record]]
molecule = "CN(C)CCOc1ccnc(-c2nc3c(c(NCC(=O)NC(C)(C)C)n2)CCC3)c1 [Compound 484]"
measurement_kind = "pEC50"
observed = 7


###

- EXPERIMENTAL TARGET: human ferroportin (Homo sapiens, UniProt Q9NP59)
- Construct: luciferase reporter (read with the Nano-Glo Luciferase Assay System); expressed in transfected cells; host or cells: CHO cells, stably transfected, expression induced with doxycycline
- TEST DETAILS: Biological in-vitro ferroportin internalization assay (luciferase reporter)
- Assay type: cell-based
- CONDITIONS: average pEC50; stably-transfected CHO cell line expressing human ferroportin tagged to a luciferase reporter; 6 h incubation with test compound
MEASUREMENT KIND: pEC50

[[record]]
compound = "CN(CC(=O)NC(C)(C)C)c1nc(-c2cc(CCC(C)(C)O)ccn2)nc2c1CCC2"
observed = 7.7

[[record]]
compound = "CN(CC(=O)Nc1ccc(F)cc1)c1nc(-c2cc3cnn(C)c3cn2)nc2c1CCC2"
observed = 7.3

[[record]]
compound = "CN(CC(=O)NC(C)(C)C)c1nc(-c2cc(OCCO)ccn2)nc2c1C(C)(C)CC2"
observed = 8.1

[[record]]
compound = "COc1ccc(NC(=O)[C@@H](C)N(C)c2nc(-c3cc(OC4COC4)ccn3)nc3c2CCC3)cn1"
observed = 7.7

[[record]]
compound = "CN(CC(=O)NC(C)(C)C)c1nc(-c2cc(OCCO)ccn2)nc2c1CCC2"
observed = 7.9


A. CC(C)NC(=O)[C@@H](C)N(C)c1nc(-c2cc(O[C@@H]3CCN(C)C3)ccn2)nc2c1CCC2
B. CN1CCCN(c2nc(-c3ccccn3)nc3c2CCC3)CC1
Problem: Which is greater in pEC50, the first item A or the second item B ? Return value: the label identifying the chosen record.
Result: A

1. COc1cc2c(cn1)N(C(=O)CN(C)c1nc(-c3cc(OCCO)ccn3)nc3c1CCC3)CC2
2. O=C1CCN(c2nc(-c3ccccn3)nc3c2CCC3)CCN1
Problem: Which is greater in pEC50, the first item 1 or the second item 2 ? Return value: the label identifying the chosen record.
Result: 1
(1: 8, 2: 5.6)

###

- EXPERIMENTAL TARGET: human ferroportin (Homo sapiens, UniProt Q9NP59)
- Construct: luciferase reporter (read with the Nano-Glo Luciferase Assay System); expressed in transfected cells; host or cells: CHO cells, stably transfected, expression induced with doxycycline
- TEST DETAILS: Biological in-vitro ferroportin internalization assay (luciferase reporter)
- Assay type: cell-based
- CONDITIONS: average pEC50; stably-transfected CHO cell line expressing human ferroportin tagged to a luciferase reporter; 6 h incubation with test compound
MEASUREMENT KIND: pEC50

[[record]]
molecule = "CSCCOc1ccnc(-c2nc3c(c(N(C)CC(=O)NC(C)(C)C)n2)CCC3)c1"
observed = 8.0

[[record]]
molecule = "O=C(CNc1nc(-c2ccccn2)nc2c1CCC2)Nc1ccc2cccnc2c1"
observed = 6.6

[[record]]
molecule = "C[C@@H]1C[C@@H](Oc2ccnc(-c3nc4c(c(N(C)CC(=O)NC(C)(C)C)n3)CCC4)c2)CN1C"
observed = 7.8

[[record]]
molecule = "CN1CCN(C(=O)CN(C)c2nc(-c3cc4ccccc4cn3)nc3c2CCC3)CC1"
observed = 6.6

[[record]]
molecule = "Cc1ccc(NC(=O)CN(C)c2nc(-c3cc(OC4COC4)ccn3)nc3c2CCC3)cn1"
observed = 7.4

[[record]]
molecule = "C[C@H](C(=O)Nc1ccc(C(F)(F)F)nc1)N(C)c1nc(-c2cc3ccccc3cn2)nc2c1CCC2"
observed = 6.8

[[record]]
molecule = "COc1ccnc(-c2nc3c(c(N(C)CC(=O)N[C@@H]4CCC[C@@H]4O)n2)CCC3)c1 (relative stereo)"
observed = 7.8

[[record]]
molecule = "Cc1ccnc(-c2nc3c(c(N4CC(C(=O)NC5CCCCC5)C4)n2)CCC3)c1"
observed = 5.7

[[record]]
molecule = "COc1ccc(NC(=O)CN(C)c2nc(-c3cc(OC4COC4)ccn3)nc3c2CCC3)cc1"
observed = 7.9

[[record]]
molecule = "Clc1ccnc(-c2nc3c(c(N4CCCCCC4)n2)CCC3)c1"
observed = 6.6

[[record]]
molecule = "COc1ccc(NC(=O)CN(C)c2nc(-c3cc4ccccc4cn3)nc3c2CCC3)nc1"
observed = 7.4

[[record]]
molecule = "COc1ccc(NC(=O)CN(C)c2nc(-c3cn(C)cn3)nc3c2CCC3)cn1"
observed = 7.4

[[record]]
molecule = "CN(CC(=O)N1CCCCC1)c1nc(-c2cc(OC3COC3)ccn2)nc2c1CCC2"
observed = 7.5

[[record]]
molecule = "COc1ccnc(-c2nc3c(c(N(C)CC(=O)Nc4ccc(F)cc4)n2)CCC3)c1"
observed = 7.7

[[record]]
molecule = "CN(CC(=O)NC12CC(C1)C2)c1nc(-c2cc(OC3COC3)ccn2)nc2c1CCC2"
observed = 7.7

[[record]]
molecule = "CN(CC(=O)NC(C)(C)C)c1nc(-c2cc(O[C@@H]3CCOC3)ccn2)nc2c1CCC2"
observed = 7.9

[[record]]
molecule = "COc1ccc2c(c1)CCN(c1nc(-c3ccccn3)nc3c1CCC3)CC2"
observed = 6.6

[[record]]
molecule = "COc1ccc(NC(=O)CN(C)c2nc(-c3cc(OCCF)ccn3)nc3c2CCC3)cn1"
observed = 7.7

[[record]]
molecule = "CN(CC(=O)Nc1ccc(Cl)cc1)c1nc(-c2cc(OCCO)ccn2)nc2c1CCC2"
observed = 8.2

[[record]]
molecule = "CN(Cc1ncccn1)c1nc(-c2ccccn2)nc2c1CCC2"
observed = 6.8

[[record]]
molecule = "CN(CC(=O)Nc1cncc(F)c1)c1nc(-c2cc3ccccc3cn2)nc2c1CCC2"
observed = 7.1

[[record]]
molecule = "COc1ccc(NC(=O)CN(C)c2nc(-c3cc4cn[nH]c4cn3)nc3c2CCC3)cn1"
observed = 7.1

[[record]]
molecule = "COc1ccnc(-c2nc3c(c(N4CCCO[C@@H]5CCC[C@@H]54)n2)CCC3)c1"
observed = 6.9

[[record]]
molecule = "CN(C)CC(C)(C)Oc1ccnc(-c2nc3c(c(N(C)CC(=O)NC(C)(C)C)n2)CCC3)c1"
observed = 6.6


###

- EXPERIMENTAL TARGET: human ferroportin (Homo sapiens, UniProt Q9NP59)
- Construct: luciferase reporter (read with the Nano-Glo Luciferase Assay System); expressed in transfected cells; host or cells: CHO cells, stably transfected, expression induced with doxycycline
- TEST DETAILS: Biological in-vitro ferroportin internalization assay (luciferase reporter)
- Format: cell-based
- CONDITIONS: average pEC50; stably-transfected CHO cell line expressing human ferroportin tagged to a luciferase reporter; 6 h incubation with test compound
MEASUREMENT KIND: pEC50

[[record]]
smiles = "CN(CC(=O)NC(C)(C)C)c1nc(-c2cc(OCCn3cnnn3)ccn2)nc2c1CCC2"
observed = 7.9

[[record]]
smiles = "CN(CC(=O)NC1(C(F)(F)F)CC1)c1nc(-c2cc(OC3COC3)ccn2)nc2c1CCC2"
observed = 7.1

[[record]]
smiles = "c1nc(-c2nc3c(c(N4CCCCCC4)n2)CCC3)cs1"
observed = 6.3

[[record]]
smiles = "C[C@H](C(=O)NC1CCCCC1)N(C)c1nc(-c2cn(C)cn2)nc2c1CCC2"
observed = 7.8

[[record]]
smiles = "COc1ccnc(-c2nc3c(c(N(C)CC(=O)Nc4ccc(C)nc4)n2)CCC3)c1"
observed = 7.6

[[record]]
smiles = "Cc1ccnc(-c2nc3c(c(N4CCCO[C@@H]5CCC[C@@H]54)n2)CCC3)c1"
observed = 7.1

[[record]]
smiles = "CN(CC(=O)Nc1cnn(C)c1)c1nc(-c2cc(OC3COC3)ccn2)nc2c1CCC2"
observed = 7

